Catalogue of pKd values
TEST_TARGET: T1, EsCas13d, nuclease-dead (Eubacterium siraeum, UniProt B0MS50, R295A;H300A;R849A;H854A)
T1 sequence: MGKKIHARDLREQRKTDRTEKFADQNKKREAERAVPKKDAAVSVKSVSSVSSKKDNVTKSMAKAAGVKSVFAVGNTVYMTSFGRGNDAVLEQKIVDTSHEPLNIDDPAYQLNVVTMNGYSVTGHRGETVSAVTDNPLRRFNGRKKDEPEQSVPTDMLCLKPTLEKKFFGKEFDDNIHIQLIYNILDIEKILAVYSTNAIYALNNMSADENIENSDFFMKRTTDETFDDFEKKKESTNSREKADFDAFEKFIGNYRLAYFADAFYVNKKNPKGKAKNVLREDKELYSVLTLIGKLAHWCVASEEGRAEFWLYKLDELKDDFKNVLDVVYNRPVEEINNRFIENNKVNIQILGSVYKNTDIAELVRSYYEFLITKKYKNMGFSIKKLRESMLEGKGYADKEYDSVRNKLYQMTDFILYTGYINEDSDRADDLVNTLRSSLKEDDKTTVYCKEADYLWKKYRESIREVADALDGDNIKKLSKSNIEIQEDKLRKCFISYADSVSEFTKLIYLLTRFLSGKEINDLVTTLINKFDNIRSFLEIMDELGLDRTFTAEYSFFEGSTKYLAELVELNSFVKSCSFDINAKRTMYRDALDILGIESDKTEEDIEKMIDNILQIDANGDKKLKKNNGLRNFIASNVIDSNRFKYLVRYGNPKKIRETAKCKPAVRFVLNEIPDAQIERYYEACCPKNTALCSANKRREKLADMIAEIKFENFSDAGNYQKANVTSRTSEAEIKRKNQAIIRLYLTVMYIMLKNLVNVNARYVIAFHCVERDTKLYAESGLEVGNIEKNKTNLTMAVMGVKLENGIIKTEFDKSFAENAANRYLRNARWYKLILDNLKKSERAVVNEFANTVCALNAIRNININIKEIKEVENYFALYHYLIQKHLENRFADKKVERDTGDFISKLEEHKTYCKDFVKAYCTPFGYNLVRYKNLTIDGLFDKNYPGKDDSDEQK
EXPERIMENT: crRNA (strand 1, pre-loaded); Mg2+; 40 mM Tris-HCl pH 7.5, 150 mM NaCl, 6 mM MgCl2, 1 mM DTT, 0.1% Tween-20, 0.2 mg/ml BSA; 25 C; 10 min per concentration, then washed
MEASUREMENT_PARAMETERS: tags: His6-TwinStrep-SUMO cleaved; N-terminal SNAP kept (SNAP-Surface 488); label: 3' end held by stalled T7 RNA polymerase
When answering, recall that pKd equals minus log10 of the concentration in mol/L, and write that number alone.

binder="target 1 U3C,G13C (mixed) RNA 1: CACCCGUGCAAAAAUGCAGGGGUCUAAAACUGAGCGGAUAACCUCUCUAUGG RNA 2: GGGAAUGGAUCCACAUCUACGAAUUCGUACCAUAGAGACGUUAUCCGCCCACCGAGAUCGGAAGAGCACACGU" reported_measurement=7.44
binder="target 3 C6G,U8G (mixed) RNA 1: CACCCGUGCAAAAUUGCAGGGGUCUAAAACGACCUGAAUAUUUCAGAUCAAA RNA 2: GGGAAUGGAUCCACAUCUACGAAUUCGUUUUUGAUCUGAAAUAGUGAGGUCUGCAGAUCGGAAGAGCACACGU" reported_measurement=7.19
binder="target 3 C1A (mixed) RNA 1: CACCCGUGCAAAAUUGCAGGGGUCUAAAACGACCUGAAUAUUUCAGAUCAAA RNA 2: GGGAAUGGAUCCACAUCUACGAAUUCGUUUUUGAUCUGAAAUAUUCAGGUAUGCAGAUCGGAAGAGCACACGU" reported_measurement=7.70
binder="target 1 MT 5'PFS GUA 3'PFS ACA (mixed) RNA 1: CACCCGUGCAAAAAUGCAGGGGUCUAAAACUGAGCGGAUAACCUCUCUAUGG RNA 2: GGGAAUGGAUCCACAUCUACGAAUUCGUACCAUAGAGAGGUUAUCCGCUCAACAAGAUCGGAAGAGCACACGU" reported_measurement=7.76
binder="target 3 insG 3' of 16,insU 3' of 1 (mixed) RNA 1: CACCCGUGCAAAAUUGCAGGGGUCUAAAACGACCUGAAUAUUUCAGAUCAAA RNA 2: GGGAAUGGAUCCACAUCUACGAAUUCGUUUUUGAUCGUGAAAUAUUCAGGUCUUGCAGAUCGGAAGAGCACACGU" reported_measurement=7.13
binder="target 1 MT 5'PFS UUA 3'PFS AUG (mixed) RNA 1: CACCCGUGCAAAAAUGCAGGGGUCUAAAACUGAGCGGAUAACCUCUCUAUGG RNA 2: GGGAAUGGAUCCACAUCUACGAAUUCUUACCAUAGAGAGGUUAUCCGCUCAAUGAGAUCGGAAGAGCACACGU" reported_measurement=7.19

Now, please, on to the next binder.
The recorded pKd for entry target 1 insU 3' of 20,insC 3' of 18 (mixed) RNA 1: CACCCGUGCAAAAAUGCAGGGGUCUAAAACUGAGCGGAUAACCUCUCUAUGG RNA 2: GGGAAUGGAUCCACAUCUACGAAUUCGUACCAUUACGAGAGGUUAUCCGCUCACCGAGAUCGGAAGAGCACACGU equals 7.44

All figures here come from paper PMC10786891.
